target: GPR40 (Homo sapiens); construct: expressed in transfected cells; host or cells: HEK293 cells stably expressing GPR40 (Hygromycin selection); assay: IP1 accumulation assay in HEK293 cells stably expressing GPR40; assay type: cell-based; settings: IP1 accumulation, HEK293 cells stably expressing GPR40, 2 hours at 37° C., % effect relative to AMG-1638; table of Biological Example 1
Sequence (O14842 whole entry): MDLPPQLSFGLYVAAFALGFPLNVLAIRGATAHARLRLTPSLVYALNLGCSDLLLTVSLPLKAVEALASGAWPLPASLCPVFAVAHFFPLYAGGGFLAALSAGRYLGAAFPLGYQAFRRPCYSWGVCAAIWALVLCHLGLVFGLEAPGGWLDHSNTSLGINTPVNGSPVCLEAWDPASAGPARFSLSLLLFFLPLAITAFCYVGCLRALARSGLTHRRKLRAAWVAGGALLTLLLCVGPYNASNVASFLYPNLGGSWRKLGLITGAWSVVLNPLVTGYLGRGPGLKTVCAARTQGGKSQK
measure: EC50 (µM)

P: C[C@H](C(=O)O)[C@H](c1ccc2c(c1)O[C@@H](C1CCN(Cc3cc(-c4cn(CCCCCCCCCCCCCC(=O)NCCN(CCC(=O)NCCN)CCC(=O)NCCN)nn4)ccc3OC(F)(F)F)CC1)CC2)C1CC1 [Example 5]
Q: COc1ccc(F)c(-c2ccc(COc3cccc([C@@H](CC(=O)O)C4CC4)c3)cc2OC(C)(C)Cn2cc(CCCCCCCCCCCCCCCCCC(=O)NCCN(CCC(=O)NCCN)CCC(=O)NCCN)nn2)c1 [Example 31]
R: COc1ccc(F)c(-c2ccc(COc3cccc([C@@H](CC(=O)O)C4CC4)c3)cc2OC(C)(C)Cn2cc(CCCCCCCCCCC(=O)NCC[N+](C)(CCC(=O)NCCN)CCC(=O)NCCN)nn2)c1 [Example 141]
Prompt line: Reorder the items by EC50, least to greatest. Answer by listing the labels in the requested order.
Response line: Q, P, R
(Q: 0.00228 µM, P: 0.0152 µM, R: 1.65 µM)
